# tgt: PKC alpha kinase (Homo sapiens)
# protocol.notes: PKC alpha coupled-enzyme (NADH consumption) kinase assay
# Format: biochemical
# details: 4.5 nM PKC alpha, 130 μM ATP, 100 μM CaCl2, 30° C.; read-out: Ki PKC alpha
pKi: −log10 of the molar value.
Kindly state pKi for each of the entries shown.

Example entries begin here.
compound | tgt | reported.value
CC(CO)[C@@](C)(O)[C@@H]1CN(c2nc(-c3n[nH]c4ncccc34)c(F)cc2Cl)CCN1 (stereo partly drawn) | PKC alpha kinase (Homo sapiens) | < 5.90
CC(C)[C@@](C)(O)[C@@H]1CN(c2nc(-c3n[nH]c4ncccc34)c(F)cc2CO)CCN1 | PKC alpha kinase (Homo sapiens) | > 6.30
CC(C)[C@@](C)(O)C1CN(c2nc(-c3n[nH]c4ncccc34)c(C#N)cc2F)CCN1 (stereo partly drawn) | PKC alpha kinase (Homo sapiens) | < 5.90
CC(C)[C@](C)(O)[C@@H]1CN(c2nc(-c3n[nH]c4ncccc34)c(F)cc2Cl)CCN1 | PKC alpha kinase (Homo sapiens) | > 5.55
CC(C)[C@@](C)(O)[C@@H]1CN(c2nc(-c3n[nH]c4ncccc34)c(F)cc2Cl)CCN1 | PKC alpha kinase (Homo sapiens) | > 6.30
OC(C1CC1)C1CN(c2nc(-c3n[nH]c4ncccc34)c(F)cc2F)CCN1 (stereo not drawn) | PKC alpha kinase (Homo sapiens) | > 6.30
CC(C)[C@@](C)(O)[C@@H]1CN(c2nc(-c3n[nH]c4ncccc34)c(F)cc2O)CCN1 | PKC alpha kinase (Homo sapiens) | > 6.30
COCC(C)(O)C1CN(c2nc(-c3n[nH]c4ncccc34)c(F)cc2F)CCN1 (stereo not drawn) [Compound 16] | PKC alpha kinase (Homo sapiens) | < 5.90
COCC(C)(O)C1CN(c2nc(-c3n[nH]c4ncccc34)c(F)cc2F)CCN1 (stereo not drawn) [Compound 17] | PKC alpha kinase (Homo sapiens) | > 5.55
CCC(O)C1CN(c2nc(-c3n[nH]c4ncccc34)c(F)cc2Cl)CCN1 (stereo not drawn) [Compound 19] | PKC alpha kinase (Homo sapiens) | > 5.55

Hi! Can you tell me pKi for each of these compounds?
1. CC1(C)CC1(O)C1CN(c2nc(-c3n[nH]c4ncccc34)c(F)cc2F)CCN1 (stereo not drawn)
2. CC(O)(C1CC1)C1CN(c2nc(-c3n[nH]c4ncccc34)c(F)cc2F)CCN1 (stereo not drawn) [Compound 4]
3. CC(C)(F)C(C)(O)C1CN(c2nc(-c3n[nH]c4ncccc34)c(F)cc2F)CCN1 (stereo not drawn) [Compound 11]
4. CC(O)(C1CC1)C1CN(c2nc(-c3n[nH]c4ncccc34)c(F)cc2F)CCN1 (stereo not drawn) [Compound 5]
5. CC(C)(C)C(O)C1CN(c2nc(-c3n[nH]c4ncccc34)c(F)cc2Cl)CCN1 (stereo not drawn)
6. CC(CO)[C@@](C)(O)[C@@H]1CN(c2nc(-c3n[nH]c4ncccc34)c(F)cc2F)CCN1 (stereo partly drawn) [Compound 39]
7. CC(C)[C@@](C)(O)[C@@H]1CN(c2nc(-c3n[nH]c4ncccc34)c(F)cc2C#N)CCN1

Output:
["> 6.30", "< 5.90", "> 5.55", "> 6.30", "> 6.30", "< 5.90", "< 5.90"]

Hi! Can you tell me pKi for each of these compounds?
1. CC(C)[C@@](C)(O)[C@@H]1CN(c2nc(-c3n[nH]c4ncccc34)c(C#N)cc2F)CCN1
2. CC(C)C(O)C1CN(c2nc(-c3n[nH]c4ncccc34)c(F)cc2Cl)CCN1 (stereo not drawn) [Compound 21]
3. COCC(C)(O)C1CN(c2nc(-c3n[nH]c4ncccc34)c(F)cc2Cl)CCN1 (stereo not drawn)
4. CC(O)(C1CN(c2nc(-c3n[nH]c4ncccc34)c(F)cc2F)CCN1)C(F)(F)F (stereo not drawn)

Output:
1. < 5.90
2. > 5.55
3. < 5.90
4. > 5.55

Hi! Can you tell me pKi for each of these compounds?
1. CC(C)C(N)[C@H]1CCN(c2nc(-c3n[nH]c4ncccc34)c(F)cc2Cl)C1 (stereo partly drawn) [Compound 23]
2. CC(C)C(N)C1CCN(c2nc(-c3n[nH]c4ncccc34)c(F)cc2F)C1 (stereo not drawn)
3. CC(C)(O)[C@@](C)(O)[C@@H]1CN(c2nc(-c3n[nH]c4ncccc34)c(F)cc2F)CCN1

Output:
> 6.30
> 5.55
> 6.30
